tested_target: T1, TNFR1 (Homo sapiens, UniProt P19438)
T1 chain: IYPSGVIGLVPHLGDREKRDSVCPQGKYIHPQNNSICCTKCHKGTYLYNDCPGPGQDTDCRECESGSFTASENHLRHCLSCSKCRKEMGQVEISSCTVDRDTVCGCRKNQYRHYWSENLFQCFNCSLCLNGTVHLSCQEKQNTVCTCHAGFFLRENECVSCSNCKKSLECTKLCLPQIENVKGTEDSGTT
test_name: yeast display SC50
# maps each entry to its apparent Kd (screen)

# binder, apparent Kd (screen) / nM
measured = [
    ("E19S (designed binder) SMEEEVEKAAKEYEKKKKSAIEKHLEKLKAKDKEAAERFLKELEEAAKEYAKDEAKTMSEEEAKRRAKKYKEKVLLSELSEEEQKEIKEAEEKLVRTILKYVEEAAK", 0.446),
    ("A63F (designed binder) SMEEEVEKAAKEYEKKKKEAIEKHLEKLKAKDKEAAERFLKELEEAAKEYAKDEAKTMSEEEFKRRAKKYKEKVLLSELSEEEQKEIKEAEEKLVRTILKYVEEAAK", 10.4),
    ("K88N (designed binder) SMEEEVEKAAKEYEKKKKEAIEKHLEKLKAKDKEAAERFLKELEEAAKEYAKDEAKTMSEEEAKRRAKKYKEKVLLSELSEEEQKEINEAEEKLVRTILKYVEEAAK", 0.446),
    ("E60I (designed binder) SMEEEVEKAAKEYEKKKKEAIEKHLEKLKAKDKEAAERFLKELEEAAKEYAKDEAKTMSIEEAKRRAKKYKEKVLLSELSEEEQKEIKEAEEKLVRTILKYVEEAAK", 0.49),
]
